All figures here come from a melting point compilation (Tetko et al.; mined from patent text by program, amines drawn as free bases though some values may be those of a salt).

Quick reference for melting point among some molecules

O=C1CN(c2ccccc2)C(=O)N1C1CCCCC1    196 °C
CCOC(=O)Cc1cccc(-c2nc(CCl)c(C)o2)c1    64 to 65 °C

Which melting point is listed for Cc1nc2cccc3n(CCCCNS(C)(=O)=O)c(=O)c1n23 ?
166 to 167 °C

Requested read-out: melting point. Entry: O=CC=C(Cl)c1cccc([N+](=O)[O-])c1
83 °C

Look at this molecule and give its reported melting point. COC(=O)CSc1ccc(OC)cc1C(=O)OC
55 to 57 °C

I'd like to know its melting point. The molecule in question is COC1CSC2=C(SC1)C(OC(=O)N1CCN(C)CC1)N(c1ccc3ccc(C)nc3n1)C2=O (stereo unspecified)
220 °C

Look at this molecule and give its reported melting point. Cn1cc(-c2cccc(N3Cc4cc(C(C)(C)C)ccc4C3=O)c2CO)nc(Nc2ccc(N3CCOCC3)cc2)c1=O
225 to 227 °C

Requested read-out: melting point. Entry: CCOC(=O)CCCn1c(=O)c2sc(N)nc2n(C)c1=O
170 to 171 °C

Given Oc1cc2c3ccc(O)c(O)c3n(Cc3c(Cl)cccc3Cl)c2cc1O , state its recorded melting point.
263 to 265 °C

Can you look up the measured melting point of COC(=O)C(Oc1ccc(NC(C)=O)cc1)c1ccc(Oc2ccc(Cl)cc2)cc1 (stereo unspecified) for me?
152 to 157 °C

I'd like to know its melting point. The molecule in question is Cc1ccc(C(C)(C)C)cc1P(=O)(O)c1cc(C(C)(C)C)ccc1C
182 to 183 °C

Consider the molecule COC(=O)c1ccccc1-c1ccc(N(C)C)cn1 and give its measured melting point.
161 to 163 °C

If you can, please state the reported melting point value of COc1cc(CCC(=O)c2c(O)cc(O)c(CCC(C)C)c2O)cc(OC)c1O .
166 to 167 °C

Reported melting point for O=C1c2ccc(S(=O)(=O)c3ccccc3)cc2C(=O)c2cc3ccccc3cc21 : what is it?
> 260 °C

Entry CCCCNC(=O)Nc1ccc(OC)cc1C(=O)NCC1CCN(C(c2ccccc2)c2ccccc2)CC1 has what melting point?
206 to 208 °C

// returns reported melting point for input O=C(Nc1ccc(Br)cc1)Oc1ccc2c(c1)CCCN2
198 °C

What measured melting point goes with Cc1[nH]cnc1/C=C/C(=O)c1cc2ccccc2n1C ?
222 to 224 °C

Which melting point reading was recorded for the molecule CSc1nnc(-c2nn(C)c(C)c2S(N)(=O)=O)o1 ?
156 to 158 °C

Query (molecule): CC(CN1CCCS1(=O)=O)c1ccncc1 (stereo unspecified) ; field requested: melting point
90 to 92 °C

Find the recorded melting point belonging to NC(=O)c1c(N)oc2c(-c3ccccc3)cccc2c1=O and report it.
233 to 235 °C

I have this molecule here, CCC(C)(C)OC(=O)NC(C)(Cc1c[nH]c2ccccc12)C(=O)NCCc1ccccn1 (stereo unspecified) , and I need its recorded melting point.
151 to 152 °C

* * *

Entries annotated with measured melting point

Examples with their reported melting point follow.
O=C(c1ccccc1)N1CCCC2=C1CCc1cc(Cl)ccc12    194 to 196 °C
COc1cc(C(=O)NC2CC(C)(C)N(C)C(C)(C)C2)ccc1-c1nc2cc(Cl)c(Cl)cc2[nH]1    285 to 286 °C
CO[C@H]1O[C@@H](C)[C@@H]2C(=O)[C@H]3CCCC[C@@H]3C[C@H]12    86 to 87 °C
O=C(NCCO)/C(=C/c1ccc(OC(F)F)cc1)NC(=O)c1ccc(OCCc2ccc(Cl)cc2)cc1    160 to 162 °C

Next, consider the following compound.
Consider the compound shown here: CC(Nc1ccc(Oc2ccc(O)cc2)cc1)C(=O)O (stereo not given) What is its recorded melting point?
188 °C

* * *

Experimental readout: melting point

// known answers, use as guide
N#Cc1ccc(CCCN)cc1    72 to 74 °C
CC(C)Oc1ccccc1Oc1ccc(NC(=O)N2CCc3ccccc3CC2)cn1    149 to 152 °C

Let us move to another entry and its melting point.
Which melting point is listed for O=C(O)C1=Cc2cc(S(=O)(=O)Cc3ccccc3)ccc2OC1C(F)(F)F (stereo not drawn) ?
172 to 176 °C

* * *

Experimental readout: melting point

CN(CC(=O)O)[C@H]1CC[C@H](Nc2ncc3ncnc(Nc4ccc(F)c(Cl)c4)c3n2)CC1    220 to 228 °C
CCc1nn(CCOc2ccc(C=O)cc2)c(=O)c2ccccc12    110 °C
CC(=O)NCC1CN(c2ccc(N3CCN(c4nc(C)ns4)CC3)c(F)c2)C(=O)O1 (stereo not given)    168 to 170 °C
Cc1nn(C)c(C#N)c1[N+](=O)[O-]    96 to 98 °C

Can you share its melting point? I mean this compound: CNc1ncnc2c1ncn2C1OC(CO)C(OC)C1(C)O (stereo not given)
165 °C

Can you look up the measured melting point of CN(C)CCCNC(=O)c1c2ccc(Cl)cc2c(-c2ccccc2)n1C for me?
146 to 148 °C

What measured melting point goes with CC(=O)Nc1cccc(NC(=O)C=C2CC(C(=O)O)Nc3cc(Cl)cc(Cl)c32)c1 (racemic) ?
190 to 193 °C

Which melting point is reported for this compound? Oc1ccc(-c2ccc(F)cc2F)cc1C12CC3CC(CC(C3)C1)C2
146 to 148 °C

Entry under review: Fc1ccc(C(CN2CCCC2)=C2SCCCS2)cc1 . Reported melting point?
69 to 70 °C

Endpoint output: melting point of C[Si](C)(CCSCCNC(=O)n1cc(F)c(=O)[nH]c1=O)c1ccccc1 . Value?
90 to 91 °C

* * *

Measured melting point of individual entries

Example compounds with recorded melting point:
CCOC(=O)c1cnc(Cl)c2c(C)n[nH]c12    180 °C
CCCCCCCCCCCCCCCCSCC(CNS(=O)(=O)CCCI)NC(=O)NC (stereo unspecified)    70 to 71 °C
Cc1ccc(P(=O)(C(=O)c2c(C)cc(C)cc2C)C(=O)c2c(C)cc(C)cc2C)cc1    151 to 152 °C

Look at this compound and give its reported melting point. CC(=O)NC[C@H]1CN(c2ccc(C(=O)c3cnc4c(Br)cc(C)cn34)cc2)C(=O)O1
221 to 223 °C

Record request: melting point value, item CCc1cc(C=Cc2ccccc2O)on1
175 to 176 °C

Quick one: melting point for O=C(O)C(=O)CC(=O)c1cn(CCCCc2ccccc2)c2ccccc2c1=O ?
136 to 138 °C

Looking for the measured melting point of COc1ccc(-c2coc3ccc(-c4nnc(C)o4)cc23)cc1F , can you help?
159 to 160 °C

Name the reported melting point value associated with the compound COc1ncccc1Nc1c(NC(NC(=O)c2cccc(C)c2)C(C)(C)C)c(=O)c1=O (stereo unspecified)
224 to 226 °C

// lookup melting point for CS(=O)(=O)NCCc1ccncc1
114 to 116 °C

Report melting point for Cc1cc(=O)[nH]c2cc(OCCCN3CCN(c4cccc(Cl)c4)CC3)ccc12 please.
212 to 214 °C

Recorded melting point of COC(=O)c1cc(C2(c3ccc(F)c(-c4cncnc4)c3)N=C(N)N(C)C2=O)cn1CCF (stereo unspecified) , please.
88 to 90 °C

Bench note: what melting point did C=CCNC(=O)[C@H]1N(C(=O)OC(C)(C)C)CSC1(C)C show?
94 to 98 °C

* * *

Property: melting point; scope: individual compounds

Take a look at these entries with their results.
COc1ccc(-c2nn(C(C)C)c(=O)c(C(N)=O)c2-c2ccc(OC)cc2)cc1    165 to 166 °C
CCN1c2ncccc2C(OS(C)(=O)=O)Nc2c(C)cc(C)nc21 (stereo unspecified)    154 to 155 °C
NCc1cccc(-n2cnc3cnc4ccc(Cl)cc4c32)c1    148 to 149 °C
COC(=O)[C@H]1[C@H](C(=O)OC)C1(Br)C=O (stereo partly specified)    52 °C
CCCN(CCC)Cc1nc(-c2ncn3c2CN(C)C(=O)c2c(Br)cccc2-3)no1    135 to 145 °C
Cc1cc2c(=O)n(CCN(Cc3ccc4c(c3)NC(=O)C(C)(C)C(=O)N4CC3CC3)Cc3cccnc3C)ccc2o1    138 to 143 °C
COc1cccc(C2(C(C)(C)O)CCN(C)CC2)c1    100 °C
COc1ccc(CNc2cc(C(=O)Nc3ccccc3)ccc2OC)cc1    173 to 174 °C
O=S(=O)(Nc1ccc(Cl)c(F)c1)c1ccccc1    115 to 116 °C
CCOC(=O)CCCOc1cc(C=Cc2ccc3ccc(Br)cc3n2)ccc1Cl    215 to 220 °C

Reported melting point, compound Cc1ncc(CNC(=O)c2sc(N3CCN(CC4CC4)C3=O)nc2C)s1 : ____
165 to 167 °C

What does the record list as melting point for Cn1cccc1C(=O)NN(C(=O)c1ccccc1)C(C)(C)C ?
182 to 185 °C
